# Assay Explanation: Pharmacokinetic study in rats after sublingual vein administration of parecoxib
# Assay type: in vivo
# Condition Notes: male, Sprague Dawley; rat plasma, sublingual vein administration of 5 mg/kg PCX, n = 6
Property Name: AUC(0-t) (ng·h/mL)

[1] CCC(=O)NS(=O)(=O)c1ccc(-c2c(-c3ccccc3)noc2C)cc1
[2] Cc1onc(-c2ccccc2)c1-c1ccc(S(N)(=O)=O)cc1
Request: Which gives the smaller AUC(0-t) number: 1 or 2 ? Respond using the label that marks the chosen record.
Result: 1
(1: 2110 ng·h/mL, 2: 4190 ng·h/mL)

###

# Assay Explanation: Pharmacokinetic study in rats after sublingual vein administration of parecoxib
# Format: in vivo
# Condition Notes: male, Sprague Dawley; rat plasma, sublingual vein administration of 5 mg/kg PCX, n = 6; read-out: MRT(0-t)
Property Name: MRT last (h)

[a] Cc1onc(-c2ccccc2)c1-c1ccc(S(N)(=O)=O)cc1
[b] CCC(=O)NS(=O)(=O)c1ccc(-c2c(-c3ccccc3)noc2C)cc1
Request: API: POST /compare with a and b ; response names the item with higher MRT last. Respond using the label that marks the chosen record.
Result: a

###

# Assay Explanation: Pharmacokinetic study in rats after sublingual vein administration of parecoxib
# Type: in vivo
# Condition Notes: male, Sprague Dawley; rat plasma, sublingual vein administration of 5 mg/kg PCX, n = 6
Property Name: AUC(0-inf) (ng·h/mL)

[I] Cc1onc(-c2ccccc2)c1-c1ccc(S(N)(=O)=O)cc1 [Valdecoxib]
[II] CCC(=O)NS(=O)(=O)c1ccc(-c2c(-c3ccccc3)noc2C)cc1 [Parecoxib]
Request: API: POST /compare with I and II ; response names the item with higher AUC(0-inf). Respond using the label that marks the chosen record.
Result: I
(I: 4370 ng·h/mL, II: 2110 ng·h/mL)

###

# Assay Explanation: Pharmacokinetic study in rats after sublingual vein administration of parecoxib
# Assay type: in vivo
# Condition Notes: male, Sprague Dawley; rat plasma, sublingual vein administration of 5 mg/kg PCX, n = 6
Property Name: clearance (mL/min/kg)

[A] CCC(=O)NS(=O)(=O)c1ccc(-c2c(-c3ccccc3)noc2C)cc1
[B] Cc1onc(-c2ccccc2)c1-c1ccc(S(N)(=O)=O)cc1
Request: Which gives the smaller clearance number: A or B ? Respond using the label that marks the chosen record.
Result: B
(B: 20 mL/min/kg, A: 40 mL/min/kg)

###

# Assay Explanation: Pharmacokinetic study in rats after sublingual vein administration of parecoxib
# Format: in vivo
# Condition Notes: male, Sprague Dawley; rat plasma, sublingual vein administration of 5 mg/kg PCX, n = 6
Property Name: Cmax (ng/mL)

[P] CCC(=O)NS(=O)(=O)c1ccc(-c2c(-c3ccccc3)noc2C)cc1 [Parecoxib]
[Q] Cc1onc(-c2ccccc2)c1-c1ccc(S(N)(=O)=O)cc1 [Valdecoxib]
Request: API: POST /compare with P and Q ; response names the item with higher Cmax. Respond using the label that marks the chosen record.
Result: P
